B1: library; numbered along this chain (parent)
chain: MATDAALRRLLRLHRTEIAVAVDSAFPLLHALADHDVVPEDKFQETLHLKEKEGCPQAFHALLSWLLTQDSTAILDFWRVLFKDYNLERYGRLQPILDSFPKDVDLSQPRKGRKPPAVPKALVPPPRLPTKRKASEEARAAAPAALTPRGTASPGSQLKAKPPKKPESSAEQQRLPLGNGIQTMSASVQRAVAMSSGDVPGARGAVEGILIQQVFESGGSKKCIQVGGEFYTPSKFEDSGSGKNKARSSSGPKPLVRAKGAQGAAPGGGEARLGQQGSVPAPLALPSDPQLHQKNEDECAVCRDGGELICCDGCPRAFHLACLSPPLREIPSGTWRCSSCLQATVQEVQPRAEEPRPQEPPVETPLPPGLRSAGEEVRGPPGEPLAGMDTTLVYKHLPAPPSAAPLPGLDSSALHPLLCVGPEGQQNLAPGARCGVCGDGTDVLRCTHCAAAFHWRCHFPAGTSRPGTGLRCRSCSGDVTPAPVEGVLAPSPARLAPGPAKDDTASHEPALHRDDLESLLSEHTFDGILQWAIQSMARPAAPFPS

variants of: B1; experiment: AIRE transcriptional activation functional score (insulin promoter-GFP; nonsense median 0, synonymous median 1) (normalised score); higher = higher AIRE activity (more reporter activation); details: with insulin promoter-GFP reporter in HEK293
Measurement type: AIRE transcriptional activation functional score
Please state the value as a number alone, without comment.

// below: answered variants
T147L	1.05
P27H	0.254
E376Y	0.702
A500Y	0.944
G218L	1.01
A493S	1.29
H396I	1.17
R378E	0.928

## Task Give AIRE transcriptional activation functional score for P176D
## Result -0.465

## Task Give AIRE transcriptional activation functional score for A541T
## Result 0.842

## Task Give AIRE transcriptional activation functional score for K120M
## Result 1.31
